TARGET: human F508del-CFTR (Homo sapiens, UniProt P13569, DEL508-508)
Sequence (P13569 with tags, fused parts or gaps DEL508-508): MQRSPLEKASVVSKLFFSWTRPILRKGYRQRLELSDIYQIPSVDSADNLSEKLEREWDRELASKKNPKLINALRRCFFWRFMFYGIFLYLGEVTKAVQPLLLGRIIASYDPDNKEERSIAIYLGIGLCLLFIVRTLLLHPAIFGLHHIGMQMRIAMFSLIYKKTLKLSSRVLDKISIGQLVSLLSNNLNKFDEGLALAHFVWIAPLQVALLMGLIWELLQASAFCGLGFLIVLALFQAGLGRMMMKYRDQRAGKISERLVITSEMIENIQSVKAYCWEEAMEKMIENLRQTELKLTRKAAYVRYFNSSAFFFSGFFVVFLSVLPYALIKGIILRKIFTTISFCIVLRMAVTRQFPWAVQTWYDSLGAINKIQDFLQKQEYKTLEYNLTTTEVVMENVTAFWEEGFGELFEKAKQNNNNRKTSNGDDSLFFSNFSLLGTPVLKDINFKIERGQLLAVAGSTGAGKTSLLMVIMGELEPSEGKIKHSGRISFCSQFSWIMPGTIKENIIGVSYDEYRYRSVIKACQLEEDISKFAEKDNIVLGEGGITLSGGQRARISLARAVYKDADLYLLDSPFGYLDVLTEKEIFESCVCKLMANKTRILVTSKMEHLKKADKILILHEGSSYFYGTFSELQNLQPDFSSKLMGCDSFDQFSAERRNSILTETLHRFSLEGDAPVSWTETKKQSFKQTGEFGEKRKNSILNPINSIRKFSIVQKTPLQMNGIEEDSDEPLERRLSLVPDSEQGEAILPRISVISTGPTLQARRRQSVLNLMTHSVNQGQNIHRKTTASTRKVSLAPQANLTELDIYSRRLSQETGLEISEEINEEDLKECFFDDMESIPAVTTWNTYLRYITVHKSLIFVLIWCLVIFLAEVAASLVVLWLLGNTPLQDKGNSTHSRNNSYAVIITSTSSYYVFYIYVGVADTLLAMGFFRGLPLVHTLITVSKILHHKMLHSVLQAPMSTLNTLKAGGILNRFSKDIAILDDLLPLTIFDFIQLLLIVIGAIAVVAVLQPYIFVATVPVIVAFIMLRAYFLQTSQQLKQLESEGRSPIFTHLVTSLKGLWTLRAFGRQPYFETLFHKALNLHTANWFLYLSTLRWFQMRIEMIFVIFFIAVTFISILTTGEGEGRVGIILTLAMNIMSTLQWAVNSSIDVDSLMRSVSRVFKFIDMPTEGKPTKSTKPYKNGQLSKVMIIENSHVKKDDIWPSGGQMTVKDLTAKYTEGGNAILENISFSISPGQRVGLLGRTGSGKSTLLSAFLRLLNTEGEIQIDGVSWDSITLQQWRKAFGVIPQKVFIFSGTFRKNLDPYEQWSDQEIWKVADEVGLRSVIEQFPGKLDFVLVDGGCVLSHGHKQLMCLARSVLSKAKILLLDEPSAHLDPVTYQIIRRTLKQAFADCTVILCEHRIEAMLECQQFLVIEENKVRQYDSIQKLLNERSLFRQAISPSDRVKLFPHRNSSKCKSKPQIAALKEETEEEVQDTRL
ASSAY TEXT: F508del-CFTR cell surface expression (corrector activity), DiscoveRx ß-galactosidase complementation chemiluminescence assay in recombinant U2OS cell line;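 also: U2OS cells co-expressing ProLink-tagged F508del-CFTR and a membrane-anchored enzyme acceptor, where more surface CFTR restores β-galactosidase activity measured by chemiluminescence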
APPLIED CONDITIONS: EC50, F508del-CFTR cell surface expression, U2OS cell line, 16h compound incubation; geomean values
Some compounds, each annotated with its measured EC50.
Just the number please, in nM, no unit attached.

The examples below pair each entry with its known result.
CC(C)C[C@H]1C(=O)N2CCOC[C@@H]2C(=O)N[C@H](Cc2ccccc2)COc2ccc3ccccc3c2C(=O)N[C@H](C(=O)NCCc2ccc3c(c2)OCCO3)CC(=O)N1C [Example 39] ... 415
CC(C)C[C@H]1C(=O)N2CCCC[C@@H]2C(=O)N[C@H](Cc2ccccc2)COc2cnc3ccccc3c2C(=O)N[C@H](C(=O)NCCc2c(F)cc(Br)cc2F)CC(=O)N1C [Example 99] ... 205
CC(C)C[C@H]1C(=O)N2CCCC[C@@H]2C(=O)N[C@H](Cc2ccccc2)COc2cnc3ccccc3c2C(=O)N[C@H](C(=O)NCCc2nc(-c3ccccc3)no2)CC(=O)N1C [Example 76] ... 196
CC(C)C[C@H]1C(=O)N2CCCC[C@@H]2C(=O)N[C@H](Cc2ccccc2)COc2cnc3ccccc3c2C(=O)N[C@H](C(=O)NCCc2noc(C(C)(C)C)n2)CC(=O)N1C [Example 85] ... 260

Now let's try a different one.
Provide only the value of recorded EC50 for COc1cccc(CCNC(=O)[C@@H]2CC(=O)N(C)[C@@H](CC(C)C)C(=O)N(CC[C@H]3CCCCO3)CC(=O)N[C@H](Cc3ccccc3)COc3cccc(OC)c3C(=O)N2)c1 (racemic) [Example 310]
788
